Complete Media values by entry
Tested on: NCI-H292 lung cancer cells
Experiment: FDA drug screening, complete media vs cholesterol-free media with simvastatin (TABLE 2)
Format: cell-based, human
Details: NCI-H292 cells, complete media; cell growth value in FDA drug screen
Counter-ions that a name gives are not always drawn.
Lab note: jot down the number only; don't add units.

NCCCC(O)(P(=O)(O)O)P(=O)(O)O = 0.9547
CC(Oc1c(Cl)cccc1Cl)C1=NCCN1 (centres unmarked) [Lofexidine (hydrochloride)] = 1.376
Cn1ncnc1[C@H]1c2n[nH]c(=O)c3cc(F)cc(c23)N[C@@H]1c1ccc(F)cc1 = 0.3489
Cc1ncc([N+](=O)[O-])n1CC(O)CCl (centres unmarked) = 1.072
CC1(C)O[C@@H]2[C@@H](CO[C@@]3(COS(N)(=O)=O)OC(C)(C)O[C@@H]23)O1 [Topiramate] = 1.706
C[C@@H](NCCCc1cccc(C(F)(F)F)c1)c1cccc2ccccc12 [Cinacalcet (hydrochloride)] = 0.9877
CC(C)(O)c1ccccc1CC[C@@H](SCC1(CC(=O)O)CC1)c1cccc(/C=C/c2ccc3ccc(Cl)cc3n2)c1 [Montelukast (sodium)] = 0.9746
Cc1cc(CC(C)CC(C)(C)C)n(O)c(=O)c1.NCCO (centres unmarked) = 0.02737

CCCCc1oc2ccc(NS(C)(=O)=O)cc2c1C(=O)c1ccc(OCCCN(CCCC)CCCC)cc1 [Dronedarone (Hydrochloride)] has a reported Complete Media of 0.8231

OCCOCCN1CCN(C2=Nc3ccccc3Sc3ccccc32)CC1 has a reported Complete Media of 0.9281

CO/N=C(\C(=O)N[C@@H]1C(=O)N2C(C(=O)O)=C(Cn3ccc(=N)n3CCO)CS[C@H]12)c1csc(N)n1.O=S(=O)(O)O [Cefoselis (sulfate)] has a reported Complete Media of 1.107

* * *

System: NCI-H292 lung cancer cells
Experiment: FDA drug screening, complete media vs cholesterol-free media without statin (TABLE 1)
Format: cell-based, human
Details: NCI-H292 cells, FDA drug library screen, complete media
Counter-ions that a name gives are not always drawn.
endpoint: Complete
Lab note: jot down the number only; don't add units.

CN(C)CCC=C1c2ccccc2C(C)(C)c2ccccc21 [Melitracen (hydrochloride)] = 1.187
Cn1nnnc1SCC1=C(C(=O)[O-])N2C(=O)[C@@H](NC(=O)[C@H](O)c3ccccc3)[C@H]2SC1.[Na+] [Cefamandole (sodium)] = 1.12
COc1cc2c(cc1OC)-c1cc3ccc(OC)c(OC)c3c[n+]1CC2.[Cl-] [Palmatine (chloride)] = 0.6255

CN(Cc1cc(Br)cc(Br)c1N)C1CCCCC1 [Bromhexine (hydrochloride)] has a reported Complete of 1.254

CC/C=C\C/C=C\C/C=C\C/C=C\C/C=C\CCCC(=O)O has a reported Complete of 0.969

Cn1c(=O)c2[nH]cnc2n(C)c1=O has a reported Complete of 0.7581

NCCCC[C@H](N[C@@H](CCc1ccccc1)C(=O)O)C(=O)N1CCC[C@H]1C(=O)O [Lisinopril (dihydrate)] has a reported Complete of 1.657

Nc1ccc(C(=O)[O-])c(O)c1.O.O.[Na+] [Sodium 4-aminosalicylate (dihydrate)] has a reported Complete of 0.9477

Cc1cc(C2CCCCC2)n(O)c(=O)c1 has a reported Complete of 0.1741

* * *

Tested on: NCI-H292 lung cancer cells
Assay: FDA drug screening, complete media vs cholesterol-free media without statin (TABLE 1)
Type: cell-based, human
Details: Complete minus Cholesterol-free; greater than 0 enhanced anti-cancer activity, about 0 neutral, below 0 antagonist
Counter-ions that a name gives are not always drawn.
Difference values by entry
Lab note: jot down the number only; don't add units.

CC(Oc1c(Cl)cccc1Cl)C1=NCCN1 (stereo not shown) = −0.14

CC[C@H](C)C(=O)O[C@H]1C[C@@H](C)C=C2C=C[C@H](C)[C@H](CC[C@@H]3C[C@@H](O)CC(=O)O3)[C@H]21 has a reported Difference of −0.11

CCN1CCN(C(=O)N[C@@H](C(=O)N[C@@H]2C(=O)N3[C@@H]2SC(C)(C)[C@@H]3C(=O)[O-])c2ccccc2)C(=O)C1=O.[Na+] [Piperacillin (sodium)] has a reported Difference of −0.14

CCCCc1oc2ccc(NS(C)(=O)=O)cc2c1C(=O)c1ccc(OCCCN(CCCC)CCCC)cc1 has a reported Difference of −0.14

CCCCN(CCCC)C(=O)CN1C[C@H](c2ccc3c(c2)OCO3)[C@@H](C(=O)O)[C@@H]1c1ccc(OC)cc1 [Atrasentan (hydrochloride)] has a reported Difference of −0.17

CCOc1ccc(Cc2cc([C@@H]3O[C@H](CO)[C@@H](O)[C@H](O)[C@H]3O)ccc2Cl)cc1 has a reported Difference of −0.18

CC(/C=C/C=C(\C)C(=O)O[C@@H]1O[C@H](CO[C@@H]2O[C@H](CO)[C@@H](O)[C@H](O)[C@H]2O)[C@@H](O)[C@H](O)[C@H]1O)=C\C=C\C=C(C)\C=C\C=C(/C)C(=O)O[C@@H]1O[C@H](CO[C@@H]2O[C@H](CO)[C@@H](O)[C@H](O)[C@H]2O)[C@@H](O)[C@H](O)[C@H]1O has a reported Difference of −0.11

O=C(Nc1nc(-c2cc(Cl)cs2)c(N2CCN(C3CCCCC3)CC2)s1)c1cnc(N2CCC(C(=O)O)CC2)c(Cl)c1 [Avatrombopag (hydrochloride)] has a reported Difference of −0.15

COc1cnc(NS(=O)(=O)c2ccc(N)cc2)nc1 has a reported Difference of −0.13

Cc1cc(S(=O)(=O)O)c2c(C)ccc(C(C)C)cc1-2 [Sodium gualenate] has a reported Difference of −0.12

CCOc1cc(CC(=O)N[C@@H](CC(C)C)c2ccccc2N2CCCCC2)ccc1C(=O)O [Repaglinide] has a reported Difference of −0.08

C#C[C@]1(O)C=C[C@H]2[C@@H]3CCC4=CC(=O)CC[C@@H]4[C@H]3CC[C@@]21CC has a reported Difference of −0.11

Nc1nc(=O)c2c([nH]1)NC[C@@H](CNc1ccc(C(=O)N[C@@H](CCC(=O)O)C(=O)O)cc1)N2C=O has a reported Difference of −0.12

* * *

Tested on: NCI-H292 lung cancer cells
Test: FDA drug screening, complete media vs cholesterol-free media without statin (TABLE 1)
Format: cell-based, human
Details: NCI-H292 cells, cholesterol-free media without statin
Where a name gives a salt, the structure may show the parent alone.
Cholesterol-free values by entry
Lab note: jot down the number only; don't add units.

The following compounds have reported results that may help.
CCCN1C[C@H](C)[C@@H](O)[C@](C)(O)[C@@H](CC)OC(=O)[C@H](C)[C@@H](O[C@H]2C[C@@](C)(OC)[C@@H](O)[C@H](C)O2)[C@H](C)[C@@H](O[C@@H]2O[C@H](C)C[C@H](N(C)C)[C@H]2O)[C@](C)(O)C[C@H]1C = 1.35
COC(=O)C1=C(C)NC(C)=C(C(=O)OC(C)C)C1c1cccc2nonc12 (stereo not shown) = 1.16
CN1CCN(c2c(F)cc3c(=O)c(C(=O)O)cn4c3c2SCC4)CC1 [Rufloxacin hydrochloride] = 1.291
Clc1ccc(C(OCCN2CCCCC2)c2ccccc2)cc1 (stereo not shown) [Cloperastine (hydrochloride)] = 1.087

CC1(C)OC[C@@H](COC(=O)CCc2ccc(OC[C@@H](O)CNCCNC(=O)N3CCOCC3)cc2)O1 [Landiolol (hydrochloride)] has a reported Cholesterol-free of 1.352

CCOc1ccc2nc(SCCN3CCOCC3)[nH]c2c1 [Fabomotizole (hydrochloride)] has a reported Cholesterol-free of 1.463

CCN(CC)CCOC(=O)c1ccc(N)cc1Cl [Chloroprocaine (hydrochloride)] has a reported Cholesterol-free of 1.161

* * *

System: NCI-H292 lung cancer cells
Experiment: FDA drug screening, complete media vs cholesterol-free media without statin (TABLE 1)
Type: cell-based, human
Conditions: NCI-H292 cells, cholesterol-free media without statin
Where a name gives a salt, the structure may show the parent alone.
endpoint: Cholesterol-free
Lab note: jot down the number only; don't add units.

CCS(=O)(=O)N1CC(CC#N)(n2cc(-c3ncnc4[nH]ccc34)cn2)C1 [Baricitinib] = 0.7863
NC[C@H]1O[C@H](O[C@H]2[C@H](O[C@@H]3O[C@H](CO)[C@@H](O)[C@H]3O)[C@@H](O)[C@H](N)C[C@@H]2N)[C@H](N)[C@@H](O)[C@@H]1O.O=S(=O)(O)O [Ribostamycin (sulfate)] = 1.714
CC(C)[N+]1(C)[C@@H]2CC[C@H]1CC(OC(=O)C(CO)c1ccccc1)C2.[Br-] (stereo partly drawn) [Ipratropium (bromide)] = 1.233
NCC1(CC(=O)O)CCCCC1 [Gabapentin] = 1.237
CN1[C@@H]2CC[C@H]1C[C@@H](OC(=O)c1c[nH]c3ccccc13)C2 [Tropisetron (Hydrochloride)] = 1.166

CNC(=O)c1cnn(-c2nc(N)c3ncn([C@@H]4O[C@H](CO)[C@@H](O)[C@H]4O)c3n2)c1 [Regadenoson] has a reported Cholesterol-free of 1.426

CC(=O)Nc1ccc(OC(=O)c2ccccc2OC(C)=O)cc1 [Benorilate] has a reported Cholesterol-free of 1.212

CC1COc2c(N3CCN(C)CC3)c(F)cc3c(=O)c(C(=O)O)cn1c23 (stereo not drawn) [Ofloxacin] has a reported Cholesterol-free of 1.221

C[C@@H]1CCO[C@H]2Cn3cc(C(=O)NCc4ccc(F)cc4F)c(=O)c(O)c3C(=O)N12 [Dolutegravir] has a reported Cholesterol-free of 0.9033

CCCc1nc(C(C)(C)O)c(C(=O)O)n1Cc1ccc(-c2ccccc2-c2nnn[nH]2)cc1 [Olmesartan] has a reported Cholesterol-free of 1.93

Data credit: patent US20250144067A1
